- System: Vaccinia virus
- test_name: Minimum inhibitory concentration required to reduce virus induced cytopathogenicity by 50% against vaccinia virus in rabbit primary kidney cell cultures
- Type: functional
- measurement_conditions: Orthopoxvirus vaccinia
Label key: TRUE means MIC under 10 mg/L; FALSE means MIC of 10 mg/L or more.

Completed entries (count: 5):
{"smiles_entry": "Cl.Cn1cc(NC(=O)c2cc(NC(=O)C3CC3)cn2C)cc1C(=O)NCCC(=N)N", "class_name": "FALSE"}
{"smiles_entry": "Cl.Cn1cc(NC(=O)c2cc(NC(=O)CF)cn2C)cc1C(=O)NCCC(=N)N", "class_name": "TRUE"}
{"smiles_entry": "Cl.Cl.Cn1cc(NC(=O)c2cc(NC(=O)CNC(=N)N)cn2C)cc1C(=O)NCCC(=N)N", "class_name": "TRUE"}
{"smiles_entry": "CC[N+](CC)(CC)CC.Cn1cc(NC(=O)c2cc(NC(=O)C(Cl)Cl)cn2C)cc1C(=O)NCCC(=N)N.O=S(=O)([O-])O", "class_name": "FALSE"}
{"smiles_entry": "Cl.Cl.Cn1cc(NC(=O)c2cc(NC(=O)c3cc(NC=O)cn3C)cn2C)cc1C(=O)NCCC(=N)N", "class_name": "TRUE"}

(Q) Would you kindly verify if MIC of Cl.Cn1cc(NC(=O)c2cc(NC(=O)C(Cl)(Cl)Cl)cn2C)cc1C(=O)NCCC(=N)N is strictly less than 10 mg/L?
(A) FALSE

(Q) State whether 10 mg/L exceeds MIC recorded for Cl.Cn1cc(NC(=O)c2cc(NC(=O)CCCCl)cn2C)cc1C(=O)NCCC(=N)N .
(A) FALSE
